FYI, the data here is from ChEMBL document CHEMBL1142476.

system: Micrococcus luteus; assay: Antibacterial activity against Micrococcus luteus IFC12708; format: functional
Record form. Attribute: MIC. Fill in for each entry.
Lab book: enter the figure in µg/mL, no units written.

Problem: Return reported MIC for target or system Micrococcus luteus, item CC1=CC[C@H]2C(C)(C)CCC[C@]2(C)[C@H]1C[C@@H](OS(=O)(=O)[O-])[C@H](C)CCC/C(C)=C/Cc1cc(O)ccc1O.[Na+] [HALISULFATE 1] .
Result: 50

Problem: Under Micrococcus luteus, report MIC for C=C1CC[C@H]2C(C)(C)CCC[C@]2(C)[C@H]1C[C@@H](OS(=O)(=O)[O-])[C@H](C)CCC/C(C)=C/Cc1cc(O)ccc1O.[Na+]
Result: 50

Problem: Specify the recorded MIC for C=C1CCC[C@@H]2[C@@](C)(CC[C@H](CCCc3ccoc3)COS(=O)(=O)O)[C@H](C)CC[C@]12C.CN(C)C(=N)N , system: Micrococcus luteus.
Result: 25
